# Selectivity index I/IX per entry
System tested: hCA IX (Homo sapiens, UniProt Q16790)
Method notes: biochemical
Assay type: biochemical
Test conditions: ratio KI hCA I / KI hCA IX
Could you keep your reply to the number by itself?

Field: example entries. Status: answers known.
• NS(=O)(=O)c1ccc(Nc2nc3nccc(-c4ccccc4F)n3n2)cc1 = 35.0
• NS(=O)(=O)c1ccc(Nc2nc3nccc(-c4ccccc4Cl)n3n2)cc1 = 618
• NS(=O)(=O)c1ccc(Nc2nc3nccc(-c4cccc(Br)c4)n3n2)cc1 = 241
• NS(=O)(=O)c1ccc(Nc2nc3nccc(-c4ccccc4)n3n2)cc1 = 25.3
• Cc1ccc(-c2ccnc3nc(Nc4ccc(S(N)(=O)=O)cc4)nn23)cc1 = 35.5

# input Specify reported Selectivity index I/IX for the compound shown: CCOc1ccc(-c2ccnc3nc(Nc4ccc(S(N)(=O)=O)cc4)nn23)cc1
# output 51.9

# input Specify reported Selectivity index I/IX for the compound shown: COc1ccc(-c2ccnc3nc(Nc4ccc(S(N)(=O)=O)cc4)nn23)cc1OC
# output 27.7

# input Specify reported Selectivity index I/IX for the compound shown: NS(=O)(=O)c1ccc(Nc2nc3nccc(-c4ccc(Br)cc4)n3n2)cc1
# output 63.8

# input Specify reported Selectivity index I/IX for the compound shown: Cc1cccc(-c2ccnc3nc(Nc4ccc(S(N)(=O)=O)cc4)nn23)c1
# output 53.5
